target: OR1_L340A (Bombyx mori, UniProt Q5WA61, L340A); assay: GCaMP6 calcium flux assay, BmOR1/Orco mutant L340A
Sequence (Q5WA61 entry or part of it L340A): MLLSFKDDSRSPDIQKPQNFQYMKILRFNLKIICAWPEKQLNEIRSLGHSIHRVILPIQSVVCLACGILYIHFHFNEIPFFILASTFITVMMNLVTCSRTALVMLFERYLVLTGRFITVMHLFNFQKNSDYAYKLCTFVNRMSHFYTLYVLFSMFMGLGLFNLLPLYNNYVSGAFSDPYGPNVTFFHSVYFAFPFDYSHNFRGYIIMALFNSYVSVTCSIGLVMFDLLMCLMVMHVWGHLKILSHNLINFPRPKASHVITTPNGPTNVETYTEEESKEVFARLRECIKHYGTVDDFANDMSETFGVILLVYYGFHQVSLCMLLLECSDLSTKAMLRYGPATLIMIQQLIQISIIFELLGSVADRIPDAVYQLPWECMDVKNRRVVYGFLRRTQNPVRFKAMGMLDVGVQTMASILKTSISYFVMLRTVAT
Sequence (Q7YT34 entry or part of it, stated change not applied, further chain): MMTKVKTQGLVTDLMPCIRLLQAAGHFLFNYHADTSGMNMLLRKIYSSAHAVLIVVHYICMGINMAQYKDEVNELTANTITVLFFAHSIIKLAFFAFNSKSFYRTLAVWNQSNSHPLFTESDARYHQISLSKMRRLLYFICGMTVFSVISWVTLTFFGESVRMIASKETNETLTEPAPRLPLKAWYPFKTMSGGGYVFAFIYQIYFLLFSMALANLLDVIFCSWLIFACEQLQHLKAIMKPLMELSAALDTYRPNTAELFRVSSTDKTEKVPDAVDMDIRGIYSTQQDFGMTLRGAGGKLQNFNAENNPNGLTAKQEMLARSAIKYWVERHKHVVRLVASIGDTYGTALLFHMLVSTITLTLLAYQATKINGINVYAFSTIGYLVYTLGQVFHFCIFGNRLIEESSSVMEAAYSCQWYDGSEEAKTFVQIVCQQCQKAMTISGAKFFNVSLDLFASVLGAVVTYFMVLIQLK
ATTRIBUTE MEASURED: EC50 (nM)
Lab book: enter the figure in nM, no units written.

Consider the compound CCC/C=C\C=C\CCCCCCCCCO . State its measured EC50.
2000

* * *

biological target: OR3_T91A (Bombyx mori, UniProt Q5FBE0, T91A); assay: GCaMP6 calcium flux assay, BmOR3/Orco mutant T91A
Sequence (Q5FBE0 entry or part of it T91A, one chain of several): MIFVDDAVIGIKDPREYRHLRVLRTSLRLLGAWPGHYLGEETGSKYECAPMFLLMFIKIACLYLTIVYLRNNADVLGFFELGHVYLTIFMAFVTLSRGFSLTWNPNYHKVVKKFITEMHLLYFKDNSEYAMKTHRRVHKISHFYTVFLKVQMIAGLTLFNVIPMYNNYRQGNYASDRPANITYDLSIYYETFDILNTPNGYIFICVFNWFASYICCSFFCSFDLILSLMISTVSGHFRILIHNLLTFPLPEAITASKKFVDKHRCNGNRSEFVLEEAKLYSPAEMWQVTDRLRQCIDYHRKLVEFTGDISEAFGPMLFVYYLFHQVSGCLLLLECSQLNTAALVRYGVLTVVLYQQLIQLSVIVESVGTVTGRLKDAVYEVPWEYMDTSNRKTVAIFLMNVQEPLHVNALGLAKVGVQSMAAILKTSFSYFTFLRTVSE
ATTRIBUTE MEASURED: EC50 (µM)
Lab book: enter the figure in µM, no units written.

Consider the compound CCC/C=C\C=C\CCCCCCCCCO . State its measured EC50.
3.98
